# credit: patent US4156777A

Run Description: Diabetogenic activity (blood glucose concentration after intravenous administration)
Assay type: in vivo, male Wister rats
Measurement Context: 60 mg/kg i.v., 7 hr after treatment
Value Kind: Blood Glucose Concentration (mg/dL)
Give the number; mg/dL is assumed, so skip it.

State its Blood Glucose Concentration for this molecule: CO[C@H]1O[C@H](CNC(=O)N(CCCl)N=O)[C@@H](O)[C@H](O)[C@H]1O [Example 6MCαG]
68.7

---

Run Description: Acute toxicity (LD50)
Assay type: in vivo, male Wister rats
Measurement Context: rat, in vivo, ip, after 1 week
LD50 at 168 h under 50 mg/kg gets condition met, anything at or over 50 mg/kg gets condition not met.

// below: answered compounds
INSERT INTO results (compound, assigned_class) VALUES
  ('CO[C@H]1O[C@H](CO)[C@@H](O)[C@H](O)[C@H]1NC(=O)N(CCCl)N=O [Example 2MCαG]', 'condition met'),
  ('O=NN(CCCl)C(=O)N[C@H]1C(O)O[C@H](CO)[C@@H](O)[C@@H]1O (some centres unmarked) [DCNU]', 'condition met'),
  ('O=NN(CCCl)C(=O)N[C@@H]1O[C@H](CO)[C@@H](O)[C@H](O)[C@H]1O [GANU]', 'condition met'),
  ('CO[C@H]1O[C@H](CNC(=O)N(CCCl)N=O)[C@@H](O)[C@H](O)[C@H]1O [Example 6MCαG]', 'condition met');

Now let's try a different one.
# check: LD50 at 168 h < 50 mg/kg for O=NN(CCCl)C(=O)NC[C@H]1OC(O)[C@H](O)[C@@H](O)[C@@H]1O (some centres unmarked) [Example 6DCNU]
condition not met

---

In this section we review reported LD50 at 168 h values for a set of compounds.
Run Description: Acute toxicity (LD50)
Type: in vivo, male Wister rats
Measurement Context: rat, in vivo, iv, after 1 week
Procedure: Test compounds were dissolved in physiological saline solution just before their dosage and administered to male Wister rats, intraperitoneally, intravenously and orally. After 1 week, the LD50 of each compound was calculated from the mortality of the test animals by the Lichfield-Wilcoxon Method. i.v.: intravenous administration
Give the value in mg/kg but do not write mg/kg after it.

// solved cases for LD50 at 168 h follow
INSERT INTO assay_data (compound, value_kind, numeric_result) VALUES
  ('CO[C@H]1O[C@H](CNC(=O)N(CCCl)N=O)[C@@H](O)[C@H](O)[C@H]1O [Example 6MCαG]', 'LD50 at 168 h', 42),
  ('O=NN(CCCl)C(=O)N[C@@H]1O[C@H](CO)[C@@H](O)[C@H](O)[C@H]1O [GANU]', 'LD50 at 168 h', 10);

Now look at this entry.
Recall and state the measured LD50 at 168 h for O=NN(CCCl)C(=O)NC[C@H]1OC(O)[C@H](O)[C@@H](O)[C@@H]1O (stereo partly drawn) [Example 6DCNU] .
85

---

// reported solubility per item
Run Description: Solubility in water at 25° C.
Assay type: physicochemical
Measurement Context: amount soluble in 1 ml water at 25° C.
Only the number, expressed in mg/mL, is required.

Here are 3 compounds together with their reported answers.
INSERT INTO measurements (compound, uom, numeric_result) VALUES
  ('CO[C@H]1O[C@H](CO)[C@@H](O)[C@H](O)[C@H]1NC(=O)N(CCCl)N=O', 'mg/mL', 45),
  ('O=NN(CCCl)C(=O)NC[C@H]1OC(O)[C@H](O)[C@@H](O)[C@@H]1O (stereo partly shown)', 'mg/mL', 750),
  ('CO[C@H]1O[C@H](CNC(=O)N(CCCl)N=O)[C@@H](O)[C@H](O)[C@H]1O', 'mg/mL', 900);

--- query ---
Consider the compound O=NN(CCCl)C(=O)N[C@H]1C(O)O[C@H](CO)[C@@H](O)[C@@H]1O (stereo partly shown) and give its recorded solubility.
40
